Biological target: Adenosine receptor A1 (Rattus norvegicus, UniProt P25099)
Sequence (P25099 whole entry): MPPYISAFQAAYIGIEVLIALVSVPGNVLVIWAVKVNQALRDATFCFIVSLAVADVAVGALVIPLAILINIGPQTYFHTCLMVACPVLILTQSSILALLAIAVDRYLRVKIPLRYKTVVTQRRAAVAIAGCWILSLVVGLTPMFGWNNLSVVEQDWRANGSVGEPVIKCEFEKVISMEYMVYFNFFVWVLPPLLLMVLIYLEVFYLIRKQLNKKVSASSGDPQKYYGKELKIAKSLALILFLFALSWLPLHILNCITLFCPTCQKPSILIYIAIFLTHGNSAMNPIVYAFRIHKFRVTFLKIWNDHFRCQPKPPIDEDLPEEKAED
pKi: −log10 of the molar value.
measure: pKi

Known results for compounds:
[[record]]
structure_notation = "CNC(=O)[C@@]12C[C@@H]1[C@@H](n1cnc3c(NC)nc(Cl)nc31)[C@H](O)[C@@H]2O"
target_under_test = "Adenosine receptor A1 (Rattus norvegicus, UniProt P25099)"
measured_value = 6.09

[[record]]
structure_notation = "CNC(=O)[C@@]12C[C@@H]1[C@@H](n1cnc3c(NCc4cccc(I)c4)ncnc31)[C@H](O)[C@@H]2O"
target_under_test = "Adenosine receptor A1 (Rattus norvegicus, UniProt P25099)"
measured_value = 7.28


(1) CNc1nc(Cl)nc2c1ncn2[C@H]1[C@H](O)[C@H](O)[C@]2(CO)C[C@H]12
(2) OC[C@@]12C[C@@H]1[C@@H](n1cnc3c(NC4CCCC4)ncnc31)C[C@@H]2O
Would you let me know which has the greater pKi value, 1 or 2 ? Please reply using the label of the selected record.
1

----------
Molecular target: Adenosine receptor A1 (Homo sapiens)
Sequence (P30542 whole entry): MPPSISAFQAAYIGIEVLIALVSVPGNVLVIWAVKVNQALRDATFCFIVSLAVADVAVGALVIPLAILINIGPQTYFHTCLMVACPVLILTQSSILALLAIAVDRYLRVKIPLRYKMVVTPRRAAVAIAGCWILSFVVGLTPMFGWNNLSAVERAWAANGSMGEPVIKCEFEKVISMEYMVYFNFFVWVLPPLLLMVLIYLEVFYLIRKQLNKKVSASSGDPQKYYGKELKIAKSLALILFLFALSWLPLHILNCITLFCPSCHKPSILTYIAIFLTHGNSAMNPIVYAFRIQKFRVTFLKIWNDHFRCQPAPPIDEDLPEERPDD
Assay: Agonist efficacy as effective concentration to stimulate binding of [35S]GTP-gamma-S, at human A1 adenosine receptor
Type: functional
measure: EC50 (nM)
I only need the number, in nM, no unit after it.

Hi! What's the reported EC50 for "OC[C@@]12C[C@@H]1[C@@H](n1cnc3c(NC4CCCC4)ncnc31)C[C@@H]2O" on Adenosine receptor A1 (Homo sapiens)?
2890

Cited source: ChEMBL document CHEMBL1134070
